experiment: Stability on storage (related substances and decomposition products); format: physicochemical; conditions: t = 0; unit assumed
readout.type: Related Substances (from process) P.A. B (%)
Answer with a number only, understood to be in %.

Report Related Substances (from process) P.A. B for C/C(=C\C(=O)OCCCCCCCCC(=O)[O-])C[C@@H]1OC[C@H](C[C@@H]2O[C@H]2[C@@H](C)[C@H](C)O)[C@@H](O)[C@H]1O.C/C(=C\C(=O)OCCCCCCCCC(=O)[O-])C[C@@H]1OC[C@H](C[C@@H]2O[C@H]2[C@@H](C)[C@H](C)O)[C@@H](O)[C@H]1O.[Ca+2] [amorphous calcium pseudomonate, calcium pseudomonate] please.
0.1
